Test system: Sulfonylurea receptor 2, Kir6.2 (Homo sapiens, UniProt O60706+Q14654)
Sequence (Q14654 whole entry): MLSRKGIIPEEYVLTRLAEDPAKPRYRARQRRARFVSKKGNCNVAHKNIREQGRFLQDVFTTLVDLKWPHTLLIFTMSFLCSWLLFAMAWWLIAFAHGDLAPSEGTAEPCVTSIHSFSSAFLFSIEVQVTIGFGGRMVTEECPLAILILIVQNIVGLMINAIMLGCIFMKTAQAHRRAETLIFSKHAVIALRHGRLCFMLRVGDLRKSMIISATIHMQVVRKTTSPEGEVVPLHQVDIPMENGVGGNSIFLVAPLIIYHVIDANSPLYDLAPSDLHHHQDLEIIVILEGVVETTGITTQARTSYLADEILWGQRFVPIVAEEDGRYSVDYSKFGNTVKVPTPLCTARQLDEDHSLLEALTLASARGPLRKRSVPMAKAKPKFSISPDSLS
Sequence (O60706 whole entry): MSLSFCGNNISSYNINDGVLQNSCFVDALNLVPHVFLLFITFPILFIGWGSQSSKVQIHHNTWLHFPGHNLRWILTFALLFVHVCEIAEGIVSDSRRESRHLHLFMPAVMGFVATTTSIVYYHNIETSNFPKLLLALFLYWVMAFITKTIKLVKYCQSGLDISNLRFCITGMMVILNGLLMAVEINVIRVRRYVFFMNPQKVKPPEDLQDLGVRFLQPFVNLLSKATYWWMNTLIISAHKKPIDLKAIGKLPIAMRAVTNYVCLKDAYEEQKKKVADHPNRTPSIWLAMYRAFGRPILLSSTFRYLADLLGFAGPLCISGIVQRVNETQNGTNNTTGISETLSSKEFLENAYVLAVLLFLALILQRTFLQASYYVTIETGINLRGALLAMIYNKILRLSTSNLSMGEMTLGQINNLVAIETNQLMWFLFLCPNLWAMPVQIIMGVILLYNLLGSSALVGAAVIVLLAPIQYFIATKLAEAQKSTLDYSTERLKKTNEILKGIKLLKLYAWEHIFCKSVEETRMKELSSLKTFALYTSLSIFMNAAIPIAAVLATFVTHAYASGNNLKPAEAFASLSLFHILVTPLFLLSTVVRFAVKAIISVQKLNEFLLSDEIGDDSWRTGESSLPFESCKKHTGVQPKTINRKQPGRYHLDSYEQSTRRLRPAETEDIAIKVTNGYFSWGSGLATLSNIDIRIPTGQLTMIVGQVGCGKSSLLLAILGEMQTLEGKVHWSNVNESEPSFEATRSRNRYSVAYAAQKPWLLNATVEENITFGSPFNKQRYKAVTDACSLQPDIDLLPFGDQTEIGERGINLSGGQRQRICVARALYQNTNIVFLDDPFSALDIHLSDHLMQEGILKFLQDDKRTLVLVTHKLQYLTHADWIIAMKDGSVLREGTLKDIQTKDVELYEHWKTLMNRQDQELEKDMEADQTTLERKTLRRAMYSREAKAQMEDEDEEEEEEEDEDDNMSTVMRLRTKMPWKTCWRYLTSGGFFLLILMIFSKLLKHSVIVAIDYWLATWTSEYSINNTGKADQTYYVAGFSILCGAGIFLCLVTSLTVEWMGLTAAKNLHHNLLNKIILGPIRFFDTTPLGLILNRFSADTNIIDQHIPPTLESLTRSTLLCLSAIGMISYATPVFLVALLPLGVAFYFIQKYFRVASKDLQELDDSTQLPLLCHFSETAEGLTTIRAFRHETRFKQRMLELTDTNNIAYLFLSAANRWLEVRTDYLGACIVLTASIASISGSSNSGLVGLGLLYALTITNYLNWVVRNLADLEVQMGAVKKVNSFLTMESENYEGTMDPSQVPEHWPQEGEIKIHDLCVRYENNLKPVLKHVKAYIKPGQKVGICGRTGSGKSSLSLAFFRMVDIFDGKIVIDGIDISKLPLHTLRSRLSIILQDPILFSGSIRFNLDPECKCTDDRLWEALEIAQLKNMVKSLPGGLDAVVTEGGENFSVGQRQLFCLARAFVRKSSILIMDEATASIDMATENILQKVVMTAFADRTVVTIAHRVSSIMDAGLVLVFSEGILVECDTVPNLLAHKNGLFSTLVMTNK
Assay summary: Ability to open human urinary bladder Kir6.2 channel containing SUR2B in Ltk cells by FLIPR assay
Format: functional, cell-based
pEC50: −log10 of the molar value.
Measured parameter: pEC50

* C[C@H]1C2=C(C(=O)N1C)[C@H](c1ccc(F)c(Br)c1)C1=C(COCC1=O)N2 (relative stereo) | 8.56
* CC[C@@H]1OC(O)=C2C1=NC1=C(C(=O)COC1)[C@H]2c1ccc(F)c(Br)c1 (stereo in doubt; 20a) | 8.41
* C[C@@H]1OC(O)=C2C1=NC1=C(C(=O)COC1)[C@H]2c1ccc(F)c(Br)c1 (stereo in doubt; 17b) | 7.29
* CC[C@@H]1OC(O)=C2C1=NC1=C(C(=O)OC1)[C@H]2c1ccc(F)c(Br)c1 (relative stereo) | 8.22
* CCC[C@@H]1OC(O)=C2C1=NC1=C(C(=O)COC1)[C@H]2c1ccc(F)c(Br)c1 (stereo in doubt; 22a) | 9.00
* CC1(C)OCC2=C(C1=O)C(c1ccc(F)c(Br)c1)C1=C(O)C(C)(C)OCC1=N2 (configuration not stated) | 5.41
* CCC[C@H]1OC(O)=C2C1=NC1=C(C(=O)COC1)[C@H]2c1ccc(F)c(Cl)c1 (stereo in doubt; 39b) | 7.04

###

Test system: Sulfonylurea receptor 2, Kir6.2 (Homo sapiens) (UniProt Q14654+O60706)
Assay summary: Ability to open human urinary bladder Kir6.2 containing SUR2B in Ltk cells by FLIPR assay relative to P1075
Format: functional, cell-based
Measured parameter: Efficacy (%)

- CC[C@@H]1OC(O)=C2C1=NC1=C(C(=O)OCC1)[C@H]2c1ccc(F)c(Br)c1: 71
- CC(C)C[C@H]1OC(O)=C2C1=NC1=C(C(=O)COC1)[C@H]2c1ccc(F)c(Br)c1 (stereo in doubt; 31a): 66
- CC[C@H]1OCC(O)=C2C1=NC1=C(C(=O)COC1)[C@H]2c1ccc(F)c(Cl)c1 (racemic): 30
- CC[C@H]1OCC(O)=C2C1=NC1=C(C(=O)COC1)[C@H]2c1ccc(Br)c(Cl)c1 (stereo in doubt; 76a): 76
- COC[C@@H]1OC(O)=C2C1=NC1=C(C(=O)COC1)[C@H]2c1ccc(F)c(Br)c1 (relative stereo): 100
- CC[C@H]1OCC(=O)C2=C1N=C1COC(O)=C1[C@@H]2c1ccc(F)c(Br)c1 (relative stereo): 90
- CCC[C@H]1OC(O)=C2C1=NC1=C(C(=O)COC1)[C@H]2c1ccc(F)c(I)c1 (stereo in doubt; 41a): 81
- C[C@@H]1OC(=O)C2=C1NC1=C([C@H]2c2ccc(F)c(Br)c2)S(=O)(=O)CC1 (relative stereo): 93
- CC[C@@H]1OCC(O)=C2C1=NC1=C(C(=O)COC1)[C@H]2c1ccc(F)c(Br)c1 (stereo in doubt; 70a): 87
- CC[C@@H]1OCC(O)=C2C1=NC1=C(C(=O)COC1)[C@H]2c1ccc(F)c(Br)c1 (racemic): 60
- CCC[C@H]1OC(O)=C2C1=NC1=C(C(=O)COC1)[C@H]2c1ccc(Br)c(Cl)c1 (stereo in doubt; 44b): 92
- CCC[C@H]1OC(O)=C2C1=NC1=C(C(=O)COC1)[C@H]2c1ccc(F)c(Cl)c1 (stereo in doubt; 39b): 39
- COC[C@H]1OC(O)=C2C1=NC1=C(C(=O)COC1)[C@H]2c1ccc(F)c(Br)c1 (stereo in doubt; 25b): 104
- CC[C@@H]1OCC(=O)C2=C1N=C1COC(O)=C1[C@@H]2c1ccc(F)c(Br)c1 (relative stereo): 74
- CC[C@@H]1OC(O)=C2C1=NC1=C(C(=O)OC1)[C@H]2c1ccc(F)c(Br)c1 (relative stereo): 94

###

Test system: Sulfonylurea receptor 2, Kir6.2 (Homo sapiens) (UniProt Q14654+O60706)
Assay summary: Ability to open human urinary bladder Kir6.2 containing SUR2B in Ltk cells by FLIPR assay relative to P1075
Assay type: functional, cell-based
The threshold is inclusive: Efficacy of exactly 70% counts as 1.0; values below receive 0.0.

• CCC[C@H]1OC(O)=C2C1=NC1=C(C(=O)COC1)[C@H]2c1ccc(Br)c(Br)c1 (stereo in doubt; 45a) = 1.0
• CCCC[C@H]1OC(O)=C2C1=NC1=C(C(=O)COC1)[C@H]2c1ccc(F)c(Br)c1 (racemic) = 0.0
• CC[C@H]1OCC(O)=C2C1=NC1=C(C(=O)COC1)[C@H]2c1ccc(F)c(I)c1 (racemic) = 0.0
• CC1(C)OCC2=C(C1=O)C(c1ccc(F)c(Br)c1)C1=C(O)OCC1=N2 (stereo in doubt; 9b) = 1.0

###

Test system: Sulfonylurea receptor 2, Kir6.2 (Homo sapiens, UniProt O60706+Q14654)
Assay summary: Ability to open human urinary bladder Kir6.2 channel containing SUR2B in Ltk cells by FLIPR assay
Format: functional, cell-based
pEC50: −log10 of the molar value.
Below, each entry is listed alongside its reported pEC50.
Measured parameter: pEC50

* CC[C@@H]1OC(O)=C2C1=NC1=C(C(=O)OCC1)[C@H]2c1ccc(F)c(Br)c1 | 6.49
* CC[C@H]1OC(O)=C2C1=NC1=C(C(=O)CSC1)[C@H]2c1ccc(F)c(Br)c1 (relative stereo) | 6.99
* CC[C@H]1OCC(O)=C2C1=NC1=C(C(=O)COC1)[C@H]2c1ccc(Br)c(Cl)c1 (racemic) | 6.00
* CC[C@@H]1OC(O)=C2C1=NC1=C(C(=O)CSC1)[C@H]2c1ccc(F)c(Br)c1 (relative stereo) | 6.81
* CC[C@H]1OCC(O)=C2C1=NC1=C(C(=O)COC1)[C@H]2c1ccc(Br)c(Br)c1 (racemic) | 6.87
* COC[C@H]1OC(O)=C2C1=NC1=C(C(=O)COC1)[C@H]2c1ccc(F)c(Br)c1 (stereo in doubt; 25a) | 6.32
* CC(C)C[C@@H]1OC(O)=C2C1=NC1=C(C(=O)COC1)[C@H]2c1ccc(F)c(Br)c1 (relative stereo) | 7.56
* C[C@H]1OC(=O)C2=C1NC1=C([C@H]2c2ccc(F)c(Br)c2)S(=O)(=O)CCC1 (relative stereo) | 6.65
* CCC[C@H]1OC(O)=C2C1=NC1=C(C(=O)COC1)[C@H]2c1ccc(Br)c(Br)c1 (stereo in doubt; 45a) | 5.94
* COC[C@H]1OC(O)=C2C1=NC1=C(C(=O)COC1)[C@H]2c1ccc(F)c(Br)c1 (racemic) | 7.64
* C[C@@H]1OCC2=C(C1=O)[C@H](c1ccc(F)c(Br)c1)C1=C(O)OCC1=N2 (stereo in doubt; 8a) | 7.14

###

Test system: Sulfonylurea receptor 2, Kir6.2 (Homo sapiens) (UniProt Q14654+O60706)
Assay summary: Ability to open human urinary bladder Kir6.2 containing SUR2B in Ltk cells by FLIPR assay relative to P1075
Type: functional, cell-based
Measured parameter: Efficacy (%)

- CC[C@@H]1OC(O)=C2C1=NC1=C(C(=O)CCC1)[C@H]2c1ccc(F)c(Br)c1 (relative stereo): 87
- CC[C@H]1OC(O)=C2C1=NC1=C(C(=O)OCC1)[C@H]2c1ccc(F)c(Br)c1 (relative stereo): 54
- CC[C@H]1OC(O)=C2C1=NC1=C(C(=O)C(C)(C)OC1)[C@H]2c1ccc(F)c(Br)c1 (stereo in doubt; 36a): 89
- CC[C@H]1OCC(O)=C2C1=NC1=C(C(=O)COC1)[C@H]2c1ccc(Cl)c(Cl)c1 (stereo in doubt; 74a): 118
- CCc1cc(C#N)ccc1Nc1c(N[C@H](C)C(C)(C)C)c(=O)c1=O: 71
- CC[C@H]1OCC(O)=C2C1=NC1=C(C(=O)COC1)[C@H]2c1ccc(C)c(Br)c1 (stereo in doubt; 78b): 56
- CC[C@H]1OC(O)=C2C1=NC1=C(C(=O)COC1(C)C)[C@H]2c1ccc(F)c(Br)c1 (stereo in doubt; 38a): 77
- C[C@H]1OC(O)=C2C1=NC1=C(C(=O)COC1)[C@H]2c1ccc(F)c(Br)c1 (racemic): 75
- C[C@H]1OC(O)=C2C1=NC1=C(C(=O)COC1)[C@H]2c1ccc(F)c(Br)c1 (stereo in doubt; 18b): 85
- CC[C@H]1OCC(O)=C2C1=NC1=C(C(=O)COC1)[C@H]2c1ccc(Cl)c(Cl)c1 (stereo in doubt; 74b): 57
- C[C@](O)(C(=O)Nc1ccc(C(=O)c2ccccc2)cc1)C(F)(F)F: 100
- CCC[C@H]1OC(O)=C2C1=NC1=C(C(=O)COC1)[C@H]2c1ccc(Cl)c(Br)c1 (stereo in doubt; 43b): 99
- CCC(C)(C)/N=C(\NC#N)Nc1cccnc1: 101
- C[C@@H]1OCC2=C(C1=O)[C@H](c1ccc(F)c(Br)c1)C1=C(O)OCC1=N2 (stereo in doubt; 8a): 15
- CC[C@H]1OCC(O)=C2C1=NC1=C(C(=O)COC1)[C@H]2c1ccc(Br)c(Cl)c1 (stereo in doubt; 76b): 37
- O=C1CCCC2=C1[C@H](c1ccc(F)c(Br)c1)C1=C(CCS1(=O)=O)N2: 90
